# assay.details: pH range solubility in biorelevant media
# Type: physicochemical
# run.conditions: FaSSIF biorelevant medium, pH 6.5, fassif, thermodynamic from solid, pH 6.5 (FaSSIF); Upper intestine after a glass of water; read-out: Solubility
endpoint: solubility (µg/mL)
Please state the figure in µg/mL; there is no need to write the unit.

Recorded solubility for CN1CC[C@@H](c2c(O)cc(O)c3c(=O)cc(-c4ccc(C(F)(F)F)cc4Cl)oc23)[C@@H]1CO.O=C(O)CC(=O)O [Voruciclib Malonate] , please?
230

###

# assay.details: pH range solubility in biorelevant media
# Type: physicochemical
# run.conditions: FEDGAS biorelevant medium, pH 4.5, fassgf or other biorelevant, thermodynamic from solid, pH 4.5 (FEDGAS); mid stage of stomach emptying; read-out: Solubility
endpoint: solubility (µg/mL)
Report the value in µg/mL with no unit label.

// query solubility value for entry CN1CC[C@@H](c2c(O)cc(O)c3c(=O)cc(-c4ccc(C(F)(F)F)cc4Cl)oc23)[C@@H]1CO.O=C(O)CC(=O)O [Voruciclib Malonate]
4350
